# measuredTarget: MAP3K7 TAB1 (human) (UniProt Q15750+O43318)
# Sequence (O43318 whole entry, looked up): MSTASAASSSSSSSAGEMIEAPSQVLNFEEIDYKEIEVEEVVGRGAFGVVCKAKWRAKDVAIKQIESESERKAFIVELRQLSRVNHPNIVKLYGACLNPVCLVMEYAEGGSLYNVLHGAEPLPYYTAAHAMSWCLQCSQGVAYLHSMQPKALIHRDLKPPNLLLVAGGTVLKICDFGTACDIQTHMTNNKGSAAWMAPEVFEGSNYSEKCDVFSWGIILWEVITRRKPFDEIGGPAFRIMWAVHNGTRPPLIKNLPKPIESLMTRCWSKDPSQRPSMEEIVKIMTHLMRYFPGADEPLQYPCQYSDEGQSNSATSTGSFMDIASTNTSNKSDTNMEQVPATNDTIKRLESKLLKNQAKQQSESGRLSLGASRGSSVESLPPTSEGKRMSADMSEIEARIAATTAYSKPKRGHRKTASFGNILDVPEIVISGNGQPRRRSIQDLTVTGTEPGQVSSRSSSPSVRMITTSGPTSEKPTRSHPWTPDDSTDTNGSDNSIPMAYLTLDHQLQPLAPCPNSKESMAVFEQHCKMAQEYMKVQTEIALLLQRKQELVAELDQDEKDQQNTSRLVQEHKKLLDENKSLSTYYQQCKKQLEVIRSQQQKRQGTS
# Sequence (Q15750 whole entry, looked up): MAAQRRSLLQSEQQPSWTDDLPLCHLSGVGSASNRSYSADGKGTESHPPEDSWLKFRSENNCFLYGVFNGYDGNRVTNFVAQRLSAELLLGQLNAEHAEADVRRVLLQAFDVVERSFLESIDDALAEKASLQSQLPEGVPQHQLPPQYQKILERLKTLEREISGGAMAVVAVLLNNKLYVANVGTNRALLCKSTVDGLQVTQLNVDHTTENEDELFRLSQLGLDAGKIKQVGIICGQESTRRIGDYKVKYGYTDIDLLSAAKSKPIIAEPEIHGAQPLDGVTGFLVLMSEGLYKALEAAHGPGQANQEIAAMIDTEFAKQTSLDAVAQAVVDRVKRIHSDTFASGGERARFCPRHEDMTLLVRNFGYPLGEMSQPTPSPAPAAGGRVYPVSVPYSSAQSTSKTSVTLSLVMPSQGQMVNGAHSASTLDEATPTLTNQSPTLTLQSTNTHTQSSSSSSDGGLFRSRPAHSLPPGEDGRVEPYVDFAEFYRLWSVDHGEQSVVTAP
# testSummary: radiometric filter-binding kinase assay
# conditionContext: compound 0.1 µM
Listed here: items and their measured residual activity.
Write the value in % as a bare number.

compoundString: Cc1ccc(-c2ccc3c(ccc4sc5c(c43)NC[C@@H](C)NC5=O)n2)cn1
residual activity [%]: 113
//
compoundString: Cc1cc(NC(=O)c2cccc(NC(=O)/C=C/CN(C)C)c2)ccc1Nc1nccc(-c2cccnc2)n1
residual activity [%]: 90
//
compoundString: NC1(c2ccc(-c3nc4ccn5c(=O)[nH]nc5c4cc3-c3ccccc3)cc2)CCC1
residual activity [%]: 81

Proceeding to the next molecule to report its residual activity.
Prompt: Give the reported value of residual activity for this record: `Cc1ccc(Sc2cnc(Nc3cccc(Br)n3)s2)cc1C(=O)N1CCN(C(=O)CN)CC1`
Response: 107
